Just for reference, BindingDB's records for doi:10.1021/jm5006226 is where these values come from.

- experimental.details: Antagonist activity at P2Y1 receptor in platelet-enriched human plasma assessed as 10 uM ADP-induced platelet aggregation preincubated for 1 min followed by ADP induction measured at 5 mins by aggregometric analysis
IC50 values, listed per item
endpoint: IC50 (nM)

> print(dat)
                                test.smiles  reading.unit  experimental.value
1  CC1(C)CN(c2ccccc2NC(=O)Nc2ccc(OC(F)(F)F)cc2)c2c(O)ccc(-c3ccc(Cl)cc3)c21            nM                 210
2  CC1(C)CN(c2ccccc2NC(=O)Nc2ccc(OC(F)(F)F)cc2)c2c(O)ccc(-c3ccccc3)c21            nM                 180
3  CC1(C)CN(c2ccccc2NC(=O)Nc2ccc(OC(F)(F)F)cc2)c2c(O)c(F)cc(-c3ccc(F)cc3)c21            nM                 390
4  CC1(C)CN(c2ccccc2NC(=O)Nc2ccc(OC(F)(F)F)cc2)c2c(O)cc(F)c(-c3cnc(Cl)cn3)c21            nM                 260

---

- experimental.details: Antagonist activity at P2Y1 receptor in platelet-enriched human plasma assessed as 10 uM ADP-induced platelet aggregation preincubated for 1 min followed by ADP induction measured at 5 mins by aggregometric analysis
IC50 values, listed per item
endpoint: IC50 (nM)

> print(dat)
                                   compound  endpoint  reading.unit  experimental.value
1  CC1(C)CN(c2ccccc2NC(=O)Nc2csc(Cl)n2)c2c(O)ccc(-c3ccc(F)cc3)c21      IC50            nM                  90
2  CC(C)(C)CN1CCCC1c1ccc(NC(=O)Nc2ccccc2N2CC(C)(C)c3c(-c4ccc(F)cc4)ccc(O)c32)cc1 (stereo not drawn)      IC50            nM                  90
3  CC1(C)CN(c2ccccc2NC(=O)Nc2ccc(OC(F)(F)F)cc2)c2c(O)ccc(-c3ccc(F)cc3)c21      IC50            nM                 160
4  CC1(C)CN(c2ccccc2NC(=O)Nc2ccc(OC(F)(F)F)cc2)c2c(O)cc(F)c(-c3ccc(Cl)cc3)c21      IC50            nM                 240
5  CCOC(=O)C1(C)CN(c2ccccc2NC(=O)Nc2nc3ccc(Cl)nc3s2)c2c(O)ccc(Cl)c21 (stereo not drawn)      IC50            nM                 610
6  CC(C)(C)CN1CCC2(CC1)CN(c1ccccc1NC(=O)Nc1nc3ccc(Cl)nc3s1)c1c(O)cc(F)c(-c3ccc(F)cc3)c12      IC50            nM                 180
7  CC1(CC(F)(F)F)CN(c2ccccc2NC(=O)Nc2ccc(OC(F)(F)F)cc2)c2c(O)ccc(Cl)c21 (stereo not drawn)      IC50            nM                2900
8  CC1(C)CN(c2ccccc2NC(=O)Nc2ccc(OC(F)(F)F)cc2)c2c(O)cc(F)c(-c3ccc(C(F)(F)F)nc3)c21      IC50            nM                 150

---

- experimental.details: Antagonist activity at P2Y1 receptor in platelet-enriched human plasma assessed as 10 uM ADP-induced platelet aggregation preincubated for 1 min followed by ADP induction measured at 5 mins by aggregometric analysis
pIC50: −log10 of the molar value.
pIC50 values, listed per item
endpoint: pIC50

> print(dat)
                                test.smiles  experimental.value
1  CC1(C)CN(c2ccccc2NC(=O)Nc2nc3ccc(Cl)nc3s2)c2c(O)ccc(-c3ccc(F)cc3)c21                6.64
2  CC(C)(C)CN1CCC2(CC1)CN(c1ccccc1NC(=O)Nc1ccc(OC(F)(F)F)cc1)c1c(O)cc(F)c(-c3ccc(F)cc3)c12                6.85
3  CC(C)(C)CN1CCC2(CC1)CN(c1ccccc1NC(=O)Nc1ccc(OC(F)(F)F)cc1)c1c(O)cc(F)c(-c3ccc(Cl)cc3)c12                6.70
4  CC1(C)CN(c2ccccc2NC(=O)Nc2ccc(OC(F)(F)F)cc2)c2c(O)ccc(-c3ccc(C(F)(F)F)cc3)c21                6.64
5  CC(C)(C)CN1CCC2(CC1)CN(c1ccccc1NC(=O)Nc1nc3ccc(Cl)nc3s1)c1c(O)ccc(Cl)c12                6.89
6  CC1(C)CN(c2ccccc2NC(=O)Nc2ccc(OC(F)(F)F)cc2)c2c(O)ccc(-c3ccc(F)cc3F)c21                6.80
